Recorded Vero E6 cytotoxicity efficacy by entry
- Tested on: Vero E6 cells
- TEST SETTINGS: no virus; Table 1 compounds
The reply must contain the numeric value and, after it, the unit.

Example entries begin here.
Cc1cc(SCc2sc(-c3ccc(C(F)(F)F)c(F)c3)nc2C)ccc1OCC(=O)O	0%
CC1(C)CCC2=C(O1)c1ccccc1C(=O)C2=O	15.06%

Problem: Provide Vero E6 cytotoxicity efficacy value for the following molecule: CN[C@H](CC(C)C)C(=O)N[C@H]1C(=O)N[C@@H](CC(N)=O)C(=O)N[C@H]2C(=O)N[C@H]3C(=O)N[C@H](C(=O)N[C@H](C(=O)O)c4cc(O)cc(O)c4-c4cc3ccc4O)[C@H](O[C@H]3C[C@](C)(N)[C@@H](O)[C@H](C)O3)c3ccc(c(Cl)c3)Oc3cc2cc(c3O[C@@H]2O[C@H](CO)[C@@H](O)[C@H](O)[C@H]2O[C@H]2C[C@](C)(NCc3ccc(-c4ccc(Cl)cc4)cc3)[C@@H](O)[C@H](C)O2)Oc2ccc(cc2Cl)[C@H]1O.O=P(O)(O)O.O=P(O)(O)O [oritavancin (diphosphate)]
Solution: 23.51%

====

- Tested on: Vero E6 cells
- TEST SETTINGS: no virus; Table 1 compounds
Recorded Vero E6 cytotoxicity efficacy by entry
State the answer as a number, implicitly in %.

O=C(O)c1ccc(N2C(=O)/C(=C\c3ccc(-c4ccc([N+](=O)[O-])cc4)o3)C=C2c2ccccc2)cc1	0
Brc1c(Br)c(Br)c2n[nH]nc2c1Br	80.93

Problem: Provide Vero E6 cytotoxicity efficacy value for the following compound: `O=C1C(SCCO)=C(SCCO)C(=O)c2ccccc21`
Solution: 111.33
